Reference for the values: ChEMBL document CHEMBL3112454

- Test System: Bile acid receptor (Homo sapiens, UniProt Q96RI1)
- Sequence (Q96RI1 whole entry, the tested form may be a part): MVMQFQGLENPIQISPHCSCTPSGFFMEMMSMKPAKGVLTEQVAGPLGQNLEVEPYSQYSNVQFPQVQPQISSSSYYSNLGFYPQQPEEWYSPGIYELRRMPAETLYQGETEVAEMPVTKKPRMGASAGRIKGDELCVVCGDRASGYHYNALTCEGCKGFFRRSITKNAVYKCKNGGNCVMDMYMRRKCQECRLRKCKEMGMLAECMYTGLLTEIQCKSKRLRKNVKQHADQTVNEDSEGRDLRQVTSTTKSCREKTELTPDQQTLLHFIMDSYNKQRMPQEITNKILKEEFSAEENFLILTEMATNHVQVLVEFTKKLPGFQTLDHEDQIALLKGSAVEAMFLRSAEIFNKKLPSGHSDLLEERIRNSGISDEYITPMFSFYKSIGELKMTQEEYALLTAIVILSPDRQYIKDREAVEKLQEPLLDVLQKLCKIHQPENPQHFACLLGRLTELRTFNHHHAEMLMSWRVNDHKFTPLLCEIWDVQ
- Experimental Details: Antagonist activity at GST-tagged FXRalpha LBD (unknown origin) assessed as inhibition of CDCA-induced bio-SRC-1 recruitment after 30 mins by fluorescence based HTRF assay
Returns: string. Value is t if measured IC50 is below 3 µM, and f if it is greater than or equal to it.

Challenge: # TODO verify IC50 < 3 µM strictly for this molecule: `CCC(=O)c1cc(CC)c(OCCCCCC(C)(C)c2nnn[nH]2)cc1O`
Response given: f

Challenge: What do you have for `CCc1cc(C(C)=O)c(O)cc1OCCCCCC(C)(C)C(=O)O` ?
Response given: f

Challenge: Moving on to the next molecule: `CCCCCCC(=O)c1cc(CC)c(OCCCCCC(C)(C)c2nnn[nH]2)cc1O`
Response given: f

Challenge: Try this molecule too: CCc1cc(C(C)=O)c(OC(C)c2ccccc2)cc1OCCCCCC(C)(C)c1nnn[nH]1 (stereo not given)
Response given: t

Challenge: Then what about the molecule `CCCCc1cc(C(C)=O)c(O)cc1OCCCCCC(C)(C)c1nnn[nH]1` ?
Response given: t

Challenge: Now consider `CCc1cc(C(C)=O)c(OCC2CCCCC2)cc1OCCCCCC(C)(C)c1nnn[nH]1` .
Response given: t

Challenge: Also `CC(=O)c1cc(CC(C)C)c(OCCCCCC(C)(C)c2nnn[nH]2)cc1O` ?
Response given: f

Challenge: Also check `CCc1cc(C(=O)C(C)C)c(O)cc1OCCCCCC(C)(C)c1nnn[nH]1`
Response given: f

Challenge: Same again, this time with `CCCCCCc1cc(C(C)=O)c(O)cc1OCCCCCC(C)(C)c1nnn[nH]1`
Response given: f

Challenge: Another molecule to check: `CCc1cc(C(=O)c2ccccc2)c(O)cc1OCCCCCC(C)(C)c1nnn[nH]1`
Response given: f
